test: growth inhibitors of H69AR lung tumor, primary screen, human, duplicate replicates (AID 580); settings: H69AR lung tumor cells viability, ATP luminescence, 72 h; at 10 µM; active compounds read low;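 further: 100% = mean luminescence of untreated wells and 0% = no signal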
Parameter: viability. Scope: all listed entries.

| Compound | viability, % |
| --- | --- |
| O=C(CSc1nc(O)c(Cc2ccccc2)c(=O)[nH]1)Nc1ccccc1 | 86.2 |
| O=C(Nn1cnnc1)c1cc2c(s1)CCCC2 | 102 |
| Cn1c(SCC(=O)N2CCN(c3cccc(Cl)c3)CC2)nnc1-c1ccncc1 | 79.8 |
| COc1ccccc1CN1C(=S)SC(C)(C)C1NO (stereo unspecified) | 98.3 |
| CCOC(=O)N1CCC2(CC1)CC(=O)c1c(ccc3oc(C(=O)O)c(C)c13)O2 | 92.3 |
| CCOC(=O)c1[nH]c2ccccc2c1NC(=O)c1ccco1 | 80.3 |
